Target: Thromboxane-A synthase (Rattus norvegicus) (UniProt P49430)
Sequence (whole entry): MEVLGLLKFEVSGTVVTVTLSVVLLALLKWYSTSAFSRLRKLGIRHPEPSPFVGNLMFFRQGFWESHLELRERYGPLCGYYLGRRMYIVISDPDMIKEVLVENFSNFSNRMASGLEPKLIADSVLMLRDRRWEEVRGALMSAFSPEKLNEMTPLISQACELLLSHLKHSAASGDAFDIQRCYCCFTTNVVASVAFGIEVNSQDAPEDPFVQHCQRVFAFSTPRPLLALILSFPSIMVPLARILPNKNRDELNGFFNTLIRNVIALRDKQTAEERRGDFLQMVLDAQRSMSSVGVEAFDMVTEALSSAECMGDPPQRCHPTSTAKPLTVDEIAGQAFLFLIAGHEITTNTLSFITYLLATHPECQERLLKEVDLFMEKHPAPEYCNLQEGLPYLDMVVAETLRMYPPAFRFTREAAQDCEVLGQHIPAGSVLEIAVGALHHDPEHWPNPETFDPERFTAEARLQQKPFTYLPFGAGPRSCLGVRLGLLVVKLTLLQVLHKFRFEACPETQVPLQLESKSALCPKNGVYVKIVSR
Assay: Inhibition of rat thromboxane A2 synthase evaluated as percent inhibition of thromboxane B2 formation after 24 hr of administration at 10 mg/kg.
Assay type: functional, organism-based
Design: dose 10 mg/kg
reported.metric: inhibition (%)

For orientation, consider the following solved cases.
>>> df
                                   compound  reported_metric  value_reported
0  CC1=C(C)C(=O)C(/C(=C/CCCCC(=O)O)c2cccnc2)=C(C)C1=O       inhibition              91
1      COC1=C(OC)C(=O)C(Cc2cccnc2)=C(C)C1=O       inhibition              74
2         CC1=C(Cc2cccnc2)C(=O)c2ccccc2C1=O       inhibition              92
3  CC1=C(C)C(=O)C(C(c2cccnc2)c2cccc(/C=C(\C)C(=O)O)c2)=C(C)C1=O (configuration not stated)       inhibition              19
4  CC1=C(/C=C/C(=O)O)C(=O)C(C)=C(Cc2cccnc2)C1=O       inhibition              90

a. CC1=C(C)C(=O)C(C(CCCCO)c2cccnc2)=C(C)C1=O (configuration not stated)
b. O=C(O)CCCC/C=C(\c1ccccc1)c1cccnc1 [(E)-ISBOGREL]
Between a and b , whose recorded inhibition is greater? Which one? Tell me its label. b

* * *

Experiment: physchem
Conditions: octanol/water
Description: Partition coefficient (logP)
reported.metric: logP

For orientation, consider the following solved cases.
>>> df
                                   molecule  reported_metric  value_reported
0  CC1=C(C)C(=O)C(C(CCCCC(=O)O)c2cccnc2)=C(C)C1=O (stereo unspecified)             logP            0.85
1  CC1=C(C)C(=O)C(C(CCCCCC(=O)O)c2cccnc2)=C(C)C1=O (stereo unspecified)             logP            1.35
2  CCCCC/C=C(/C1=C(C)C(=O)C(C)=C(C)C1=O)c1cccnc1             logP            5.05

1. CC1=C(C)C(=O)C(C(CCCCCCC(=O)O)c2cccnc2)=C(C)C1=O (stereo unspecified)
2. CCCCC(C1=C(C)C(=O)C(C)=C(C)C1=O)c1cccnc1 (stereo unspecified)
3. COC1=C(OC)C(=O)C(Cc2cccnc2)=C(C)C1=O
Order each entry by recorded logP, climbing from the minimum. The response must list the labels following the requested ordering. 3, 1, 2

a. CCOC(=O)/C=C/C1=C(C)C(=O)C(Cc2cccnc2)=C(C)C1=O
b. CCCCC/C=C(\C1=C(C)C(=O)C(C)=C(C)C1=O)c1cccnc1
c. CC1=C(C)C(=O)C(C(CCCC(=O)O)c2cccnc2)=C(C)C1=O (stereo unspecified)
Order the records by logP, with each subsequent value no larger than the one before. The response must list the labels following the requested ordering. b, a, c

a. CC1=C(C)C(=O)C(Cc2cccnc2)=C(C)C1=O
b. CC(=O)OCCCCCC(C1=C(C)C(=O)C(C)=C(C)C1=O)c1cccnc1 (stereo unspecified)
# min-compare on logP between a and b Which one? Tell me its label. a
